MEASURED TARGET: T1, cynoPD-1 His (AcroBiosystems PD1-C5223) (cynomolgus monkey, UniProt B0LAJ3 25-170)
T1 construct: also called cPD-1; cynomolgus PD-1 His-tagged
T1 sequence (B0LAJ3 entry or part of it limits assumed): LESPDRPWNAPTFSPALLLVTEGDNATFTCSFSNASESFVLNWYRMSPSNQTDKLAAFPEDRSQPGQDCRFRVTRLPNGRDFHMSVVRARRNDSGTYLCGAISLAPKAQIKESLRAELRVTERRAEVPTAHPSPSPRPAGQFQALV
ASSAY PROTOCOL: SPR; second ka column, taken as cynoPD-1

{"BINDER": "XVT458-z2-m4 (antibody, V domains shown, IgG format; also called z2_XVT458m4) VH: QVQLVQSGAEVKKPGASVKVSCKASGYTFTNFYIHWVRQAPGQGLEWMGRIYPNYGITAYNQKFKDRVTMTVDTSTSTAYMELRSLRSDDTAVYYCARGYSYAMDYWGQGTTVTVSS VL: DIQMTQSPSSVSASVGDRVTITCSASQGISGDLNWYQQKPGKAPKLLIYHTSSRHSGVPSRFSGSGSGTDFTLTISSLQPEDFATYYCQGYSKDLLTFGGGTKLEIK", "kon / M⁻¹ s⁻¹": 134000}
